target: T1, PCSK9-His (UniProt Q8NBP7 31-692)
T1 construct: also called antigen PCSK9-His; Proprotein Convertase Subtilisin/Kexin Type 9; not shown: His tag
T1 sequence (Q8NBP7 31-692 limits assumed): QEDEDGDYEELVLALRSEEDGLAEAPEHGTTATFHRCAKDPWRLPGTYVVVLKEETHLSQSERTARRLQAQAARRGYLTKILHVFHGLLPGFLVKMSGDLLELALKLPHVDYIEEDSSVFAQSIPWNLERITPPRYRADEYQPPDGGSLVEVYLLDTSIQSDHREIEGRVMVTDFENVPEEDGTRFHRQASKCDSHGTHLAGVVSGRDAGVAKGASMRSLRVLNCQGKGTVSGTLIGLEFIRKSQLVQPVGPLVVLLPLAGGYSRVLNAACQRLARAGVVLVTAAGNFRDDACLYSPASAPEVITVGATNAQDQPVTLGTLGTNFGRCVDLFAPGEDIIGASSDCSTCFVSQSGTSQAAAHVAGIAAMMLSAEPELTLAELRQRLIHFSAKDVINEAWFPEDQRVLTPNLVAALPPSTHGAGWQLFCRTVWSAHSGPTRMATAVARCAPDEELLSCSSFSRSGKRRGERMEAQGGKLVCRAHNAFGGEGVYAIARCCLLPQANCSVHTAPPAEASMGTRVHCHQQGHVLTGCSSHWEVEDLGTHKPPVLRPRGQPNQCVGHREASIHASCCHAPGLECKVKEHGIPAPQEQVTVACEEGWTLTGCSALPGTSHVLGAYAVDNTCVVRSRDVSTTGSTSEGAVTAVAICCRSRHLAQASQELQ
assay protocol: ELISA, PCSK9-His coated, complete antibody titrated, anti-human IgG-HRP
# key: entry, value: EC50

binder	units text	EC50
DFSK9-20 complete antibody (antibody, V domains shown) VH: QVQLVQSGAEVKKPGASVKVSCKASGYSLTSYGISWVRQAPGQGLEWMGWVSFYNGNSNYAQKLQGRGTMTTDPSTSTAYMELRSLRSDDTAVYYCARGFGMDRWGQGTTVTVSS VL: DIQMTQSPSSLSASVGDRVTITCRASQNINNWLNWYQQKPGKAPKLLIYGASTRPTGVPSRFSGSGSGTDFTLTISSLQPEDFATYYCQQWDDTPNTFGQGTKVEIK	µg/mL	0.0337
DFSK9-21 complete antibody (antibody, V domains shown, also called DF5K9-21) VH: QVQLVQSGAEVKKPGASVKVSCKASGYSLTSYGISWVRQAPGQGLEWMGWVSFYNGQTNYAQKLQGRGTMTTDPSTSTAYMELRSLRSDDTAVYYCARGFGMDRWGQGTTVTVSS VL: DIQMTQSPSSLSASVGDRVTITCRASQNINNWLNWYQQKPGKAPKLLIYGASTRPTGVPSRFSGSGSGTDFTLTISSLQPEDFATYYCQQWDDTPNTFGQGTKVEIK	µg/mL	0.0282
